- subject.of.test: T1, human complement C2 (human, UniProt P06681 21-752)
- T1 sequence: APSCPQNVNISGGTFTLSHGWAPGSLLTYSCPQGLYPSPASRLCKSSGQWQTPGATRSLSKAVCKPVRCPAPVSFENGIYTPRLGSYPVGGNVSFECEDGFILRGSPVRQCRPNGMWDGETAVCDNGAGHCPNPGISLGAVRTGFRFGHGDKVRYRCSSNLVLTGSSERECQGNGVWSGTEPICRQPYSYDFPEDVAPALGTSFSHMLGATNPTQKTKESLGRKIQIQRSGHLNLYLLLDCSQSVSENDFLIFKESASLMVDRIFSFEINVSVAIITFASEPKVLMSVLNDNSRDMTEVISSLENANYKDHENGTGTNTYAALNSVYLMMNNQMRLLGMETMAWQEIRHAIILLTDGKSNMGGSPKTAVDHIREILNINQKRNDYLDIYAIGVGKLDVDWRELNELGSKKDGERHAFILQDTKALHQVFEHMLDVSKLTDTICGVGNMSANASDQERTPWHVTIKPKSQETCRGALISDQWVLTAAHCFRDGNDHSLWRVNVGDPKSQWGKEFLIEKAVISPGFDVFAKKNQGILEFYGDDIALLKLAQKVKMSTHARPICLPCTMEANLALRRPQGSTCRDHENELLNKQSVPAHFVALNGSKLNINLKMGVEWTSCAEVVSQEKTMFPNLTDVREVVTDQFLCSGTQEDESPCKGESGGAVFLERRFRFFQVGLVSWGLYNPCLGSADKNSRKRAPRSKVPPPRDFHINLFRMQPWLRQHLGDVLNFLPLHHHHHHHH
- assay.procedure: cell-based or functional assay
observation.type: IC50, inhibition of human classical complement pathway (Wieslab assay) (nM)
# output: bare number, implied unit nM

In the examples that follow, each entry is paired with its recorded IC50, inhibition of human classical complement pathway (Wieslab assay).
RF16-214 (antibody, V domains shown) VH: EVQLLESGGGLVQPGGSLRLSCAASGFTFSWYQMMWVRQAPGKGLEWVSRIYPSGGGTAYADSVKGRFTISRDNSKNTLYLQMNSLRAEDTAVYYCARDAGYGDNWGQGTLVTVSS VL: QSALTQPPSVSVSPGQTASITCSGDKLGEKYASWYQQKAGQSPVMVIYQDRKRPSGIPERFSGSNSGNTATLTISGTQAMDEADYYCQAWDTRAVVFGGGTKLTVLG    18.6
RF16-242 (antibody, V domains shown) VH: EVQLLQSGAEVKKPGESLKISCKGSGYSFTSYWIGWVRQMPGKGLEWMGIIYPGDSDTRYSPSFQGQVTISADKSISTAYLQWSSLKASDTAMYYCARRGHYGDYFDYWGQGTLVTVSS VL: SYELTQPPSVSVSPGQTARITCSGDALPKKYAYWYHQKSGQAPVLVIYEDRRRPSEIPERFSGSSSGTMATLTITGAQVEDEGVYFCYSRDRAGNQRVFGGGTQLTVLG    9.19
RF16-191 (antibody, V domains shown, Human antibody from a phage display library) VH: EVQLLESGGGLVQPGGSLRLSCAASGFTFSKYWMGWVRQATGKGLEWVSSIYSSGGWTYYADSVKGRFTISRDNSKNTLYLQMNSLRAEDTAVYYCARRPRSFSGSYYRAFDIWGQGTMVTVSS VL: DIQMTQSPSSLSASVGDRVTITCRASQSITDYLNWYQQRPGKAPKLLIYAASSLQSGVPSRFSGSGSGTDFTLTISGLQPEDFATYYCQQSYSSSITFGQGTRLDLKR    1.09
RF16-191G (antibody, V domains shown) VH: EVQLLESGGGLVQPGGSLRLSCAASGFTFSKYWMGWVRQAPGKGLEWVSSIYSSGGWTYYADSVKGRFTISRDNSKNTLYLQMNSLRAEDTAVYYCARRPRSFSGSYYRAFDIWGQGTMVTVSS VL: DIQMTQSPSSLSASVGDRVTITCRASQSITDYLNWYQQKPGKAPKLLIYAASSLQSGVPSRFSGSGSGTDFTLTISSLQPEDFATYYCQQSYSSSITFGQGTRLDLKR    1.64
RF16-203 (antibody, V domains shown, Human antibody from a phage display library) VH: EVQLLESGGGLVQPGGSLRLSCAASGFTFSRYYMMWVRQAPGKGLEWVSSIGSSGGTTNYADSVKGRFTISRDNSKNTLYLQMNSLRAEDTATYYCAKGGMVLGVVNIWGQGTLVTVSS VL: QSALTQPPSVSVSPGQTATITCSGDKLGEKYVSWYQQKPGQSPVVVIFQDIKRPSGIPERFSGSNSGNTATLTISGTQAMDEADYYCQTWGTGGIQVFGGGTKLTVLR    5.4
RF16-214G (antibody, V domains shown) VH: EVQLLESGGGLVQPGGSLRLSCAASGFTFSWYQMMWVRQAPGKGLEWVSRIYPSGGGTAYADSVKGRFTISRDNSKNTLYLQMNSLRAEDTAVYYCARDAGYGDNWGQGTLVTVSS VL: SYELTQPPSVSVSPGQTASITCSGDKLGEKYASWYQQKPGQSPVLVIYQDRKRPSGIPERFSGSNSGNTATLTISGTQAMDEADYYCQAWDTRAVVFGGGTKLTVLG    20.3
RF16-203G (antibody, V domains shown) VH: EVQLLESGGGLVQPGGSLRLSCAASGFTFSRYYMMWVRQAPGKGLEWVSSIGSSGGTTNYADSVKGRFTISRDNSKNTLYLQMNSLRAEDTAVYYCAKGGMVLGVVNIWGQGTLVTVSS VL: SYELTQPPSVSVSPGQTASITCSGDKLGEKYVSWYQQKPGQSPVLVIYQDIKRPSGIPERFSGSNSGNTATLTISGTQAMDEADYYCQTWGTGGIQVFGGGTKLTVLG    2030

Continue with the binder presented below.
Per the records, this binder ( RF16-242G (antibody, V domains shown, Germlined version of RF16-242) VH: EVQLVQSGAEVKKPGESLKISCKGSGYSFTSYWIGWVRQMPGKGLEWMGIIYPGDSDTRYSPSFQGQVTISADKSISTAYLQWSSLKASDTAMYYCARRGHYGDYFDYWGQGTLVTVSS VL: SYELTQPPSVSVSPGQTARITCSGDALPKKYAYWYQQKSGQAPVLVIYEDRRRPSGIPERFSGSSSGTMATLTISGAQVEDEADYYCYSRDRAGNQRVFGGGTQLTVLG ) has IC50, inhibition of human classical complement pathway (Wieslab assay) equal to 26.3
